- assayed.system: Genome polyprotein (Dengue virus type 2 (strain 16681-PDK53)) (UniProt P29991)
- Sequence (P29991 whole entry, looked up): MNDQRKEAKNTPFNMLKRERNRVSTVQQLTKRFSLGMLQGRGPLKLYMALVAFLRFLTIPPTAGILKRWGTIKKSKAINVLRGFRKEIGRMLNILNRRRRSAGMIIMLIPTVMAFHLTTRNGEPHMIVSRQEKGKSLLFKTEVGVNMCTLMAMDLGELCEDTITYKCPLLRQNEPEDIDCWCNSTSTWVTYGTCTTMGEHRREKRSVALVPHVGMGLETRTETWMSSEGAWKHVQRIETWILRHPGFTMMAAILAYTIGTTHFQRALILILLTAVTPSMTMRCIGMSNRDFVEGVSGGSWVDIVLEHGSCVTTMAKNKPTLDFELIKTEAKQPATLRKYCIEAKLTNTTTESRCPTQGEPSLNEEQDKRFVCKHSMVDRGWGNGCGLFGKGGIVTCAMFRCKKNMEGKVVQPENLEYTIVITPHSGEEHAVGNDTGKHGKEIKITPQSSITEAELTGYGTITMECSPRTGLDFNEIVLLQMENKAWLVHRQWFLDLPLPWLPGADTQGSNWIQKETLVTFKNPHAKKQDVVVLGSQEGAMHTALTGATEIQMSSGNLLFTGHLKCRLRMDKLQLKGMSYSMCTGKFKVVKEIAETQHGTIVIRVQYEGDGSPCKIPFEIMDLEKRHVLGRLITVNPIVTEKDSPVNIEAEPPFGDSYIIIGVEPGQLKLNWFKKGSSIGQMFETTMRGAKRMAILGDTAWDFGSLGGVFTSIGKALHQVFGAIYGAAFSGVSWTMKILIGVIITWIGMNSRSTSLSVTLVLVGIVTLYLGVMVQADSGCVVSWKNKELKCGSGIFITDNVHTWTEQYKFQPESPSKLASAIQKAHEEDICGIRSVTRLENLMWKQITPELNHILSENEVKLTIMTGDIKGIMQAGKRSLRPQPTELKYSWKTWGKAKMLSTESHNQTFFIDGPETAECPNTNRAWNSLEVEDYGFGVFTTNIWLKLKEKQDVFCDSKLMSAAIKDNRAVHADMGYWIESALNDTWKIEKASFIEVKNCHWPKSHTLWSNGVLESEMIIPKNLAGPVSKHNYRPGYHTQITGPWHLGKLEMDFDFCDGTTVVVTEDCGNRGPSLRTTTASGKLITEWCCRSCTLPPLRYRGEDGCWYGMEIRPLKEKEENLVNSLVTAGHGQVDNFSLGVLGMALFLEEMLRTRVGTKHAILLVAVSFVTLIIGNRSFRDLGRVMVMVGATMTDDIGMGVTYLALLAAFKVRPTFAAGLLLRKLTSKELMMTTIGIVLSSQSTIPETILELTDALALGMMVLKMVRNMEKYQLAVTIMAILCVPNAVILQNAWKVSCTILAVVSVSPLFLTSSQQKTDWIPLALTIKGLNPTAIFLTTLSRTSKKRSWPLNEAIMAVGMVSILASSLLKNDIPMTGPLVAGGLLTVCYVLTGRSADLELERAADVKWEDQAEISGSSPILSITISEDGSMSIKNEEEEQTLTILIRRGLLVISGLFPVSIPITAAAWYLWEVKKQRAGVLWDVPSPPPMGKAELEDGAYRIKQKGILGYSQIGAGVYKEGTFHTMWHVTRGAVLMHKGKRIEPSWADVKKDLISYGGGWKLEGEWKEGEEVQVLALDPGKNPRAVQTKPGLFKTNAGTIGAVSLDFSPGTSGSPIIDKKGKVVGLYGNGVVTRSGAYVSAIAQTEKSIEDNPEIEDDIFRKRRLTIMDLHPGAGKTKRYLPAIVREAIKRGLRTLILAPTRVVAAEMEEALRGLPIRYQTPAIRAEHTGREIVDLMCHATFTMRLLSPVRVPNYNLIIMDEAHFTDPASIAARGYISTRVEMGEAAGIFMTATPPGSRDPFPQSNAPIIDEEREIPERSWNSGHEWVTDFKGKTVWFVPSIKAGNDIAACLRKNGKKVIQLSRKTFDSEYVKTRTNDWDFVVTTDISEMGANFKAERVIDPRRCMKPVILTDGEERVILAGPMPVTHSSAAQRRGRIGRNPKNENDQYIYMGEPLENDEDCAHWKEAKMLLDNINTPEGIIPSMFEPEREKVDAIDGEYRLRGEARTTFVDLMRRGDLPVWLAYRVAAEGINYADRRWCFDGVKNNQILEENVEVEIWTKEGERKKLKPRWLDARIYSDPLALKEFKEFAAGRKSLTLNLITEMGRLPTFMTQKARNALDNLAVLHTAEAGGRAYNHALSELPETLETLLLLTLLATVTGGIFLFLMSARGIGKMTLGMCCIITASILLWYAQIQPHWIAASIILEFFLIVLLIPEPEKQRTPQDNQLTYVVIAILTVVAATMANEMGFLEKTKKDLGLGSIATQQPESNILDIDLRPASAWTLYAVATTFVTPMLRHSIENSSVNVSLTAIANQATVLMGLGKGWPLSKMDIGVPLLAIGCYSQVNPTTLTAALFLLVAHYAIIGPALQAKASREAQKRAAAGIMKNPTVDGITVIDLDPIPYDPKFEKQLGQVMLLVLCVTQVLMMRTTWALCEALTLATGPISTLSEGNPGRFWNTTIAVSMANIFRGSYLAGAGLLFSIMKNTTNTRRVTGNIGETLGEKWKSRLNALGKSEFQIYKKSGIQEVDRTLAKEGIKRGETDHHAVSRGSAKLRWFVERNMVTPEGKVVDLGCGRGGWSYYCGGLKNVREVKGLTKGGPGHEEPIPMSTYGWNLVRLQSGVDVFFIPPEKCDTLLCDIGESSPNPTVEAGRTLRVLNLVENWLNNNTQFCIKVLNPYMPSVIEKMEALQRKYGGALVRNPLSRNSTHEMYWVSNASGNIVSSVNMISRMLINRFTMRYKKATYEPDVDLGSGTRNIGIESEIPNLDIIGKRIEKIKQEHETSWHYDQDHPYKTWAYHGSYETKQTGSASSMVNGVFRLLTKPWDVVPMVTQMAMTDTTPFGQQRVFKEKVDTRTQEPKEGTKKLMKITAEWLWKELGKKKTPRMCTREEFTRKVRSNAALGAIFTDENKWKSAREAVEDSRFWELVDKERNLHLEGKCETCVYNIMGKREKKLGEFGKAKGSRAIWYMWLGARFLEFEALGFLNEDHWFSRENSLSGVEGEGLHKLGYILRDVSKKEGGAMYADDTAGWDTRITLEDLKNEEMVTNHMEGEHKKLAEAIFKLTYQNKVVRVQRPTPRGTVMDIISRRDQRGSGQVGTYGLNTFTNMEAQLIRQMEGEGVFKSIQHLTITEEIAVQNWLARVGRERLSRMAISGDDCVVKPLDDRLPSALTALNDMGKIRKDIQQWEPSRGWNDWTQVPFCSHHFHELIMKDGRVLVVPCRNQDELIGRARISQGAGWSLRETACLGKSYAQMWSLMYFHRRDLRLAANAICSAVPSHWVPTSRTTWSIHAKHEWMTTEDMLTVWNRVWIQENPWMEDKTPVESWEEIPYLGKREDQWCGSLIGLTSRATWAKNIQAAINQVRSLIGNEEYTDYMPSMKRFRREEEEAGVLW
- assay.explanation: flavivirus cap methylation enzyme inhibition – biochemical, confirmation dose response, primary screen (AID 588689)
- run.conditions: Dengue-2 NS5 methyltransferase capping enzyme assay, at 25 µM, hits give high values
In all, about 340,000 compounds went through this assay and about 1,000 (0.29%) were called active. Not all results are given here. Measured potencies and affinities stand elsewhere.
// inhibition lookup, one value per entry

{"columns": ["compound", "assayed.system", "inhibition"],
 "data": [
  ["CC1(C)CC(=O)C(C#N)=C(NCCCO)C1", "Genome polyprotein (Dengue virus type 2 (strain 16681-PDK53)) (UniProt P29991)", "-3.49% (inactive)"],
  ["COc1cc(/C=C2/NC(=O)N(Cc3ccccc3F)C2=O)cc(OC)c1O", "Genome polyprotein (Dengue virus type 2 (strain 16681-PDK53)) (UniProt P29991)", "1.47% (inactive)"],
  ["CC(/C=C1\\SC(=S)N(CC(=O)N2CCN(c3ccccc3)CC2)C1=O)=C\\c1ccccc1", "Genome polyprotein (Dengue virus type 2 (strain 16681-PDK53)) (UniProt P29991)", "-0.73% (inactive)"],
  ["O=S(=O)(Cc1ccccc1)Nc1ccccc1", "Genome polyprotein (Dengue virus type 2 (strain 16681-PDK53)) (UniProt P29991)", "1.96% (inactive)"],
  ["O/N=C\\c1ccccc1Oc1ccc(F)cc1", "Genome polyprotein (Dengue virus type 2 (strain 16681-PDK53)) (UniProt P29991)", "-8.72% (inactive)"],
  ["O=c1cc(Cl)c(-c2ccccc2)n[nH]1", "Genome polyprotein (Dengue virus type 2 (strain 16681-PDK53)) (UniProt P29991)", "-1.61% (inactive)"],
  ["O=Cc1cc(N=Nc2ccc(S(=O)(=O)O)cc2)ccc1O", "Genome polyprotein (Dengue virus type 2 (strain 16681-PDK53)) (UniProt P29991)", "14.6% (inactive)"],
  ["Cc1ccc(C2NC(=S)N3C(c4ccc(C)cc4)NC(=S)N23)cc1 (stereo not given)", "Genome polyprotein (Dengue virus type 2 (strain 16681-PDK53)) (UniProt P29991)", "-0.57% (inactive)"],
  ["Cc1ccc(S(=O)(=O)Oc2ccccc2/C=N/O)cc1", "Genome polyprotein (Dengue virus type 2 (strain 16681-PDK53)) (UniProt P29991)", "-1.81% (inactive)"],
  ["NC(=O)N/N=C/c1ccc(-c2ccc(S(=O)(=O)Nc3ncccn3)cc2)o1", "Genome polyprotein (Dengue virus type 2 (strain 16681-PDK53)) (UniProt P29991)", "-2.88% (inactive)"],
  ["CC(C)C(C(=O)O)N1C(=O)/C(=C/C=C/c2ccco2)SC1=S (stereo not given)", "Genome polyprotein (Dengue virus type 2 (strain 16681-PDK53)) (UniProt P29991)", "42.9% (inactive)"],
  ["Cc1ccc2nc(N3C(=O)C(O)=C(C(=O)c4ccco4)C3c3ccc(O)cc3)sc2c1 (stereo not given)", "Genome polyprotein (Dengue virus type 2 (strain 16681-PDK53)) (UniProt P29991)", "3.66% (inactive)"],
  ["Cc1ccc(S(=O)(=O)Oc2ccccc2/C=C2/SC(=O)NC2=O)cc1", "Genome polyprotein (Dengue virus type 2 (strain 16681-PDK53)) (UniProt P29991)", "6.22% (inactive)"],
  ["CN(C)/C=C1\\C(=O)N(c2ccc(Oc3ccccc3)cc2)CS1=O (stereo not given)", "Genome polyprotein (Dengue virus type 2 (strain 16681-PDK53)) (UniProt P29991)", "-8.86% (inactive)"],
  ["N=C1C(c2ccccc2)=C(O)C2CCc3ccccc3N12 (stereo not given)", "Genome polyprotein (Dengue virus type 2 (strain 16681-PDK53)) (UniProt P29991)", "-2.07% (inactive)"]
]}
